// pIC50 collected for HDAC2 (Homo sapiens)
pIC50 here is simply -log10 of the concentration when that concentration is written in mol/L.

Incoming: State pIC50 (HDAC2 (Homo sapiens)) of O=C(/C=C/c1ccc(CNC[C@H]2CN(c3ccc(N4CCOCC4)c(F)c3)C(=O)O2)cc1)NO .
Outgoing: 5.55

Incoming: State pIC50 (HDAC2 (Homo sapiens)) of O=C(CCCCCCC(=O)NC[C@H]1CN(c2ccc(N3CCOCC3)c(F)c2)C(=O)O1)NO .
Outgoing: 5.19

Incoming: State pIC50 (HDAC2 (Homo sapiens)) of O=C(/C=C/c1cccc(S(=O)(=O)NC[C@H]2CN(c3ccc(N4CCOCC4)c(F)c3)C(=O)O2)c1)NO .
Outgoing: 5.78

###

Target chain: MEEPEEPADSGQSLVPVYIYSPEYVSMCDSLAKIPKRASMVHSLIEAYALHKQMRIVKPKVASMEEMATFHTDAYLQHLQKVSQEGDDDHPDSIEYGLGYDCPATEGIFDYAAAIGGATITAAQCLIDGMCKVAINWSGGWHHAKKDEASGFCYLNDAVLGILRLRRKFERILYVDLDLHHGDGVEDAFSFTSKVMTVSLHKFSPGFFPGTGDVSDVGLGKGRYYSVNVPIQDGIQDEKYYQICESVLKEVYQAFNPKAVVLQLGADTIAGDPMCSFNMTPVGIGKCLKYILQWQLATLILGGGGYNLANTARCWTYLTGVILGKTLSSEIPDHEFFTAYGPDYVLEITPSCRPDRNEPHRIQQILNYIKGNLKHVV
PARAMETER: pIC50
pIC50 here is simply -log10 of the concentration when that concentration is written in mol/L.

Incoming: Read off the recorded pIC50 for O=C(/C=C/c1ccc(CNC[C@H]2CN(c3ccc(N4CCOCC4)c(F)c3)C(=O)O2)cc1)NO [compound 1]
Outgoing: 6.35

Incoming: Read off the recorded pIC50 for O=C(/C=C/c1cccc(S(=O)(=O)NC[C@H]2CN(c3ccc(N4CCOCC4)c(F)c3)C(=O)O2)c1)NO [compound 5]
Outgoing: 6.10

###

PROTOCOL_SUMMARY: Brain distribution study, UPLC of plasma and brain tissue extract
Format: in vivo
STATED_CONDITIONS: mouse, brain/plasma, ip; C57BL/6 mice, 360 mg/kg intraperitoneal, 30 min; read-out: brain/plasma (B/P) ratio
PARAMETER: Kp at 0.5 h
Answer with a number only.

Incoming: Read off the recorded Kp at 0.5 h for O=C(/C=C/c1ccc(CNC[C@H]2CN(c3ccc(N4CCOCC4)c(F)c3)C(=O)O2)cc1)NO [compound 1]
Outgoing: 1.27

###

System: PT#3-R TMZ-resistant GBM cell line
PROTOCOL_SUMMARY: cells
Type: cell-based
STATED_CONDITIONS: Homo sapiens, MTT, 72 h
PARAMETER: IC50 (µM)
Please respond with the number in µM and leave the unit unwritten.

Incoming: State IC50 (PT#3-R TMZ-resistant GBM cell line) of CC(C)c1cc(C(=O)NC[C@H]2CN(c3ccc(N4CCOCC4)c(F)c3)C(=O)O2)c(O)cc1O [compound 8] .
Outgoing: 58

Incoming: State IC50 (PT#3-R TMZ-resistant GBM cell line) of O=C(NC[C@H]1CN(c2ccc(N3CCOCC3)c(F)c2)C(=O)O1)c1cc(Cl)ccc1O [compound 7] .
Outgoing: 52.1

Incoming: State IC50 (PT#3-R TMZ-resistant GBM cell line) of O=C(/C=C/c1ccc(CNC[C@H]2CN(c3ccc(N4CCOCC4)c(F)c3)C(=O)O2)cc1)NO [compound 1] .
Outgoing: 12.1

Incoming: State IC50 (PT#3-R TMZ-resistant GBM cell line) of O=C(/C=C/c1cccc(S(=O)(=O)NC[C@H]2CN(c3ccc(N4CCOCC4)c(F)c3)C(=O)O2)c1)NO [compound 5] .
Outgoing: 124

###

PROTOCOL_SUMMARY: Brain distribution study, UPLC of plasma and brain tissue extract
Assay type: in vivo
STATED_CONDITIONS: mouse, plasma, ip, C57BL/6 mice, 360 mg/kg intraperitoneal, read-out: Plasma conc.
PARAMETER: concentration at 30 min (ng/mL)
Please respond with the number in ng/mL and leave the unit unwritten.

Incoming: Read off the recorded concentration at 30 min for O=C(/C=C/c1ccc(CNC[C@H]2CN(c3ccc(N4CCOCC4)c(F)c3)C(=O)O2)cc1)NO
Outgoing: 656
